Attribute: Phage binding ELISA signal, Anti-PSMA Fab with PSMA antigen
Target system: T1, PSMA Fab
T1 construct: Biotinylated and captured on neutravidin plates in the phage ELISA; also called Anti-PSMA Fab; 006 PSMA Fab
Measurement protocol: clonal phage ELISA on captured PSMA Fab pre-incubated with PSMA antigen (competitor)

Binder: LMPLCVPVWMCSGF (Peptide-180 library clone, tested as clonal phage supernatant (pIII display)) [Phage-3035]
Recorded result: 0.106

Binder: YAHICKPSWMCDGF (Peptide-180 library clone, tested as clonal phage supernatant (pIII display)) [Phage-3034]
Recorded result: 0.108

Binder: ELLMCRPAWMCDGF (Peptide-180 library clone, tested as clonal phage supernatant (pIII display)) [Phage-3033]
Recorded result: 0.087

Binder: PAVRCEPSWMCQGF (Peptide-180 library clone, tested as clonal phage supernatant (pIII display)) [Phage-3037]
Recorded result: 0.161

Incoming: What does the record list as Phage binding ELISA signal, Anti-PSMA Fab with PSMA antigen for VHNWCVPSWMCLGL (Peptide-180 library clone, tested as clonal phage supernatant (pIII display)) [Phage-3039] ?
Outgoing: 0.099

Incoming: Lookup VIGWCVPQWMCSGF (Peptide-180 library clone, tested as clonal phage supernatant (pIII display)) [Phage-3045]
Outgoing: 0.113
